Target: Glucocorticoid receptor (Homo sapiens); further: assay procedure not described here
Sequence (P04150 whole entry): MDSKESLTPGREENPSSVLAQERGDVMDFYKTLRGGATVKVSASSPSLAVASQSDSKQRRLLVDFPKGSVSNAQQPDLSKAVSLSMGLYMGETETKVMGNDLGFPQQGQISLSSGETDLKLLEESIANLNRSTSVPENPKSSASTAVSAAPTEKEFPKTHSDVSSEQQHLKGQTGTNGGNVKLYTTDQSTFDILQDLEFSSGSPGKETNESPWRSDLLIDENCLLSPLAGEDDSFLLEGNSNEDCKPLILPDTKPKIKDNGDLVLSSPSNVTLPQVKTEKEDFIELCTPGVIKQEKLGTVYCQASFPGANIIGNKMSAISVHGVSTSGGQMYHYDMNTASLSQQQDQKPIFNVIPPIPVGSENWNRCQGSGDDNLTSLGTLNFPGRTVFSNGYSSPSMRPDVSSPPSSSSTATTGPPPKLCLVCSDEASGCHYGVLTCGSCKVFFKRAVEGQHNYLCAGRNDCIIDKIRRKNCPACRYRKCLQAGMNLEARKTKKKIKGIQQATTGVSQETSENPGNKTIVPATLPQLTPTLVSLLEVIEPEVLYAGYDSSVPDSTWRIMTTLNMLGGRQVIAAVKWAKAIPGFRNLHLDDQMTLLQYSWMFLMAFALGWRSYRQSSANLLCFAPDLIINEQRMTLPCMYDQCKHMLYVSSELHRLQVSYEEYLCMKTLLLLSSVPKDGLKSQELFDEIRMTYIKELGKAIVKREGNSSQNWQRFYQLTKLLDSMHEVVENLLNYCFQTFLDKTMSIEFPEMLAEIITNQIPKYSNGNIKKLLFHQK
Format: functional
ASSAY_METRIC: AC50

{"columns": ["SMILES_REPR", "ASSAY_METRIC", "REPORTED_VALUE"],
 "data": [
  ["COC(=O)[C@H](c1ccccc1Cl)N1CCc2sccc2C1", "AC50", "> 30 µM"],
  ["CCCN(CCC)CCc1cccc2c1CC(=O)N2", "AC50", "> 30 µM"],
  ["CNC(=O)c1cc(Oc2ccc(NC(=O)Nc3ccc(Cl)c(C(F)(F)F)c3)c(F)c2)ccn1", "AC50", "17 µM"],
  ["CC(=O)S[C@@H]1CC2=CC(=O)CC[C@]2(C)[C@H]2CC[C@@]3(C)[C@@H](CC[C@@]34CCC(=O)O4)[C@H]12", "AC50", "> 30 µM"],
  ["O=C1NC(=O)C(c2ccccc2)(c2ccccc2)N1", "AC50", "> 30 µM"]
]}

---

The entries below are paired with their reported AC50.
molecular target: 5-hydroxytryptamine receptor 2B (Homo sapiens, UniProt P41595); type: functional, cell-based; further: assay procedure not described here
Sequence (P41595 whole entry): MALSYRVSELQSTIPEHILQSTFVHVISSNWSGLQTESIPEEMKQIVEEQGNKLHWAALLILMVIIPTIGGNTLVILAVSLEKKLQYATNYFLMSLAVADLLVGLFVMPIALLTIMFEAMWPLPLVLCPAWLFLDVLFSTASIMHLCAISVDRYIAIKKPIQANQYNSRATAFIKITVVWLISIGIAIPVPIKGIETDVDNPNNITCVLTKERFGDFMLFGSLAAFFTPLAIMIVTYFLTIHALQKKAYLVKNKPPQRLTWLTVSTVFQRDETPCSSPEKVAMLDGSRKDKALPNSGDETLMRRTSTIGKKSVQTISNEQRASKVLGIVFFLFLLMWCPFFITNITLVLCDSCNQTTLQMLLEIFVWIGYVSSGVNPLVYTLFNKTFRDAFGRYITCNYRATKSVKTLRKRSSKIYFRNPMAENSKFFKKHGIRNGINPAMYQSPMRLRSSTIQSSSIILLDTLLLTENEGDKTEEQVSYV

{"columns": ["COMPOUND", "SUBJECT_OF_TEST", "AC50"],
 "data": [
  ["COc1ccc2c(c1)[C@]13CCCC[C@@H]1[C@H](C2)N(C)CC3", "5-hydroxytryptamine receptor 2B (Homo sapiens, UniProt P41595)", "> 10 µM"],
  ["NS(=O)(=O)c1cc(C(=O)O)cc(N2CCCC2)c1Oc1ccccc1 [PIRETANIDE]", "5-hydroxytryptamine receptor 2B (Homo sapiens, UniProt P41595)", "> 30 µM"],
  ["Nc1ccc(C(=O)O)c(O)c1", "5-hydroxytryptamine receptor 2B (Homo sapiens, UniProt P41595)", "> 30 µM"],
  ["NS(=O)(=O)c1cc2c(cc1C(F)(F)F)NC(Cc1ccccc1)NS2(=O)=O (centres undefined) [BENDROFLUMETHIAZIDE]", "5-hydroxytryptamine receptor 2B (Homo sapiens, UniProt P41595)", "> 10 µM"],
  ["Cn1c(=O)c2[nH]cnc2n(C)c1=O", "5-hydroxytryptamine receptor 2B (Homo sapiens, UniProt P41595)", "> 10 µM"],
  ["CCCN(CC)C(CC)C(=O)Nc1c(C)cccc1C (centres undefined)", "5-hydroxytryptamine receptor 2B (Homo sapiens, UniProt P41595)", "> 30 µM"],
  ["O=C(O)CSCC(=O)NC1CCSC1=O (centres undefined)", "5-hydroxytryptamine receptor 2B (Homo sapiens, UniProt P41595)", "> 30 µM"],
  ["CC[C@H]1OC(=O)[C@H](C)[C@@H](O[C@H]2C[C@@](C)(OC)[C@@H](O)[C@H](C)O2)[C@H](C)[C@@H](O[C@@H]2O[C@H](C)C[C@H](N(C)C)[C@H]2O)[C@](C)(O)C[C@@H](C)/C(=N\\OCOCCOC)[C@H](C)[C@@H](O)[C@]1(C)O", "5-hydroxytryptamine receptor 2B (Homo sapiens, UniProt P41595)", "> 30 µM"],
  ["CCn1cc(C(=O)O)c(=O)c2cc(F)c(N3CCN(C)CC3)cc21", "5-hydroxytryptamine receptor 2B (Homo sapiens, UniProt P41595)", "> 30 µM"],
  ["COc1c(O[C@@H]2O[C@H](CO)[C@@H](O)[C@H](O)[C@H]2O)cc2c(c1OC)-c1ccc(SC)c(=O)cc1[C@@H](NC(C)=O)CC2 [THIOCOLCHICOSIDE]", "5-hydroxytryptamine receptor 2B (Homo sapiens, UniProt P41595)", "> 30 µM"],
  ["COc1ccc(Cc2nccc3cc(OC)c(OC)cc23)cc1OC", "5-hydroxytryptamine receptor 2B (Homo sapiens, UniProt P41595)", "> 30 µM"],
  ["CN(C)c1cc(NC(=O)CNC(C)(C)C)c(O)c2c1C[C@H]1C[C@H]3[C@H](N(C)C)C(O)=C(C(N)=O)C(=O)[C@@]3(O)C(O)=C1C2=O", "5-hydroxytryptamine receptor 2B (Homo sapiens, UniProt P41595)", "> 30 µM"],
  ["CC(C)c1cc2c(cc1S(=O)(=O)O)[C@@]1(C)CCC[C@@](C)(C(=O)O)[C@@H]1CC2", "5-hydroxytryptamine receptor 2B (Homo sapiens, UniProt P41595)", "> 30 µM"],
  ["CO/N=C(\\C(=O)N[C@@H]1C(=O)N2C(C(=O)O)=C(COC(N)=O)CS[C@H]12)c1ccco1", "5-hydroxytryptamine receptor 2B (Homo sapiens, UniProt P41595)", "> 30 µM"]
]}
